All values here come from paper PMC9917184.

System: membrane VEGFR-2
assayProtocol: Membrane VEGFR-2 relative quantification by flow cytometry in cancer cells co-cultured with Jurkat T cells
Type: cell-based, human
conditions: A549 co-cultured with Jurkat T cells, 100 μM, 24 h, relative to non-treated co-cultures
metric: %VEGFR2 (membrane) (%)

{"columns": ["testSmiles", "recordedMeasurement"],
 "data": [
  ["COc1ccc(C(OCCc2ccc(CCn3cc(-c4cccc(Br)c4)nn3)cc2)(c2ccccc2)c2ccc(OC)cc2)cc1", 92],
  ["COc1ccc(-c2cn(CCc3ccc(CCOC(c4ccccc4)(c4ccc(OC)cc4)c4ccc(OC)cc4)cc3)nn2)cc1", 92],
  ["OCCc1ccc(CCn2cc(-c3ccccc3)nn2)cc1", 90]
]}
